Assay: Components of the Cytosolic LPS Sensing Pathway: Gene Identification via Genome-wide siRNA Screen;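 also: robust z of the log signal after scaling to non-targeting control siRNA wells of the plate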
Settings: RAW264.7 macrophages, IL-1a HTRF, actives lie on both sides, screened at 100 nM (by protocol), cells primed 5 h with Pam3CSK4 first
The campaign covered roughly 53,000 sequences. About 3,700 (7%) were called active. The full list was thinned out, with actives kept by preference.
Measured z-score of individual entries

# seq_string, z-score
rows = [
    ("GGAACUUUUGGCCAGCAAGTT against Opa1", 1.59),
    ("GGGCAGACCUAAUAGCUUATT against Cycs", 0.707),
    ("GGGAUCAAUGGCUACCUGUTT against Slc7a10", -0.0112),
    ("GGAUAUCACCCACAAUAAATT against Vps28", -0.653),
    ("GGCCAAGACACCCUUGUUUTT against Zfp524", -0.376),
    ("GCCAAGAGCACAUCUGCUATT against Suco", -1.65),
]

====

Assay: Components of the Cytosolic LPS Sensing Pathway: Gene Identification via Genome-wide siRNA Screen;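 also: robust z of the log signal after scaling to non-targeting control siRNA wells of the plate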
Conditions: RAW264.7 macrophages, IL-1a HTRF, actives lie on both sides, screened at 100 nM (by protocol), cells primed 5 h with Pam3CSK4 first
Procedure: Non-canonical inflammasome activation by cytosolic LPS is a critical component of the host response to Gram-negative bacterial infection, however we lack a comprehensive understanding of the cellular processes that control this pathway. […] Lipofectamine RNAiMAX Transfection Reagent ([…]; Invitrogen) was added in […] serum-free, antibiotic-free media to plate wells using a Thermo Scientific Matrix WellMate and Microplate Stacker. […] The plates were read on an EnVision plate reader (PerkinElmer). […]
The campaign covered roughly 53,000 sequences. About 3,700 (7%) were called active. Only a selection was taken, and actives are over-represented in it overall.

# seq_string, z-score
rows = [
    ("GGGUGAUUUCUACCUUCAATT against D630003M21Rik", -0.496),
    ("GGCCUUUGCACGUGGAUUGTT against Zfp420", -0.221),
    ("GGAGAUUUUGGUGGCUAUUTT against Uqcrfs1", -1.1),
    ("GGAAAUGAAGACAUACCUGTT against Olfr175", 0.741),
    ("GCAGGCUACCUCUAAUCCATT against Slc23a3", -0.241),
    ("GGGUGUAGCAUUGUCACAGTT against Olfr1133", 2.32),
    ("GGACGGUCCUCUUAAAAGATT against Chat", -0.394),
    ("GGUACCUCUUCUCCUAAAGTT against Vps16", 0.106),
    ("CGCCAAUGUGAUUAAACUATT against Mak", 2.01),
    ("GGUGGACGUACUUUUUAACTT against Gata3", 2.59),
    ("GCCAGUGUUGGUUAUAAAATT against Isg15", 0.673),
    ("GCAGCAGGAAGGAUCAUUCTT against Ly6h", -0.0488),
    ("GGAAGACACUGGUUUCCAATT against 1700067P10Rik", 2.62),
    ("GCCUAUUCGAAUUUGGGAATT against Ogt", -0.0977),
    ("GGAAUAAUAGAGGAAUGAGTT against Bclaf1", -1.61),
    ("GUCAUCAAACUAGGUGCUGTT against Olfr584", -2.22),
    ("GCAAACUAUAGGUGCGUUGTT against Dscc1", 0.885),
    ("GGAACAUCUUUCUUCUCCATT against Abhd4", -0.869),
    ("GGCUCAAGCGAAAAGCAGATT against Serping1", -0.46),
    ("CCGCCAUAGGCUCCUUCAATT against Acat3", 0.915),
    ("GUCAGAACAAAACCAAAUGTT against E330013P04Rik", -0.152),
    ("GGCAAAUGGAAACAGCCAUTT against Serpina1d", -1.56),
    ("GCAAUGGAACUAUUAUUCATT against Cd28", 2.48),
    ("GGUGGUCUACUUAGGUUUATT against Sc5d", 0.63),
    ("GGAAAUUGGCACCAUUACUTT against St3gal1", 2.14),
    ("GGCGGUUCAAAUGUCCUCATT against Fut2", -2.02),
    ("CCUGAGAUUGGGAAAUUCUTT against Engase", 2.02),
    ("GCAUCUGCAUUUUUUGCUATT against Prox1", 1.29),
    ("CGCAGAACGUGAACACCAATT against Smad3", -2.47),
    ("CGAUGCUGUGGAACUGCACTT against Ptgfrn", 0.417),
    ("GGAUGUGCAAGGAAUCUCATT against Spint1", 0.741),
    ("GCACAUUUGGACAACCAAUTT against AU018091", -0.973),
    ("AACAGAUCUUCUCUGGUCCTT against Klra15", -2.47),
    ("GGAGGUUAAGAUUCCAGAGTT against Prune1", 1.52),
    ("GGCUGGUUUAUUUGUGGACTT against Cemip2", 0.574),
    ("CCCAUCCAUACAAAAAUGATT against Polm", -1.73),
    ("GCAGAGGAGUUUUCAAUUUTT against Il17rb", 0.997),
    ("GGCCACCAAGAAAUUCAAATT against Cd22", 4.16),
    ("GCACAGUAGUUCUUGCAUCTT against Olfr891", 0.13),
    ("CAACUCUCUUGCUCAGACATT against Olfr814", -0.268),
    ("GGAUCCUCUUCUAUCUUUATT against Pycr1", -1.27),
    ("GGCUGAGAAACUGGAUGAATT against Rem1", -0.143),
    ("GGCCAGAAGAUUCCUAAAGTT against Gulp1", 3.38),
    ("GGCGAAAAAGAACUUCUCCTT against Prrx1", -2.17),
    ("GGCUCAAGGCUGAGUUUCATT against En2", 0.704),
    ("GGAGUGCUGAUAAAAGAAGTT against Atp5mpl", -0.952),
    ("GGCUGGGAAUUUUACAGUATT against Gpr3", 3.98),
    ("GGAAGUGCUACUUUCUGGGTT against Tmem178", 1.74),
    ("GCAGAUACCAUGAUACAGUTT against Med20", -0.154),
    ("GGAAGAAUCCUCCAUGGAGTT against Mrpl24", 1.35),
]

====

Test: Components of the Cytosolic LPS Sensing Pathway: Gene Identification via Genome-wide siRNA Screen;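 also: robust z of the log signal after scaling to non-targeting control siRNA wells of the plate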
Conditions: RAW264.7 macrophages, IL-1a HTRF, actives lie on both sides, screened at 100 nM (by protocol), cells primed 5 h with Pam3CSK4 first
About 3,700 (7%) of roughly 53,000 sequences were called active.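 How the source made its calls: active means gene knockdowns whose robust z-score for IL-1 alpha signal is at least 2 or at most -2, so actives lie on both sides; inactive means the rest.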 This excerpt belongs to a sample that is enriched for actives.
Classes used: active, inactive

# seq_string, class
data = [
    ("GGCUCUUCUUAUGCACCCUTT against Pdyn", "inactive"),
    ("GCUUUGGAUAGUAGACAGCTT against BC055324", "inactive"),
    ("GCUGUGCAAGCAAUAUCUATT against Hnrnpm", "inactive"),
    ("GGACUAGCAGUAAUAAAAGTT against Zdhhc9", "active"),
    ("GGACAACUACAUUGUACUGTT against Insr", "inactive"),
    ("GCGAUCAAAAAAGUUGCCUTT against Arhgap44", "inactive"),
    ("CCUUAUACCAUAGAGAACATT against Bfar", "inactive"),
    ("GCUCAGAUUUGCUUUAUGATT against Ube2r2", "inactive"),
    ("GCUCAAAGGACCUCUGAGCTT against Slc29a2", "inactive"),
    ("GGAAGAACUAGAGUCAUAUTT against Eps8l1", "inactive"),
    ("GGGAAUAGCAAAUAAAGCATT against Lztr1", "inactive"),
    ("GGGAGAAACGCAUCUUAUCTT against Ngly1", "active"),
    ("GGAAGUCUUAGAAGUAGCCTT against Diaph3", "inactive"),
    ("CCGUACAUAUGGUGAUCCATT against Rtn1", "inactive"),
    ("GCCAUGAUACCUUGUUAUUTT against Plppr5", "inactive"),
    ("GCAUACCCUAUUUAGUUUUTT against Gpr33", "inactive"),
    ("CGAAGUCUGAAACACAUGUTT against A730018C14Rik", "active"),
    ("GCACAUAAAAUGCUCACUGTT against Rgr", "inactive"),
    ("GGGAGAUAUGCAAUGAAUATT against Creb5", "inactive"),
    ("UCCUCCUGUCUUACGUACGTT against Prlhr", "active"),
    ("GGGAAUUUCCUGAAAUCCUTT against Mettl8", "inactive"),
    ("CCAGUAGAAAGAAUCCAGATT against Gm128", "inactive"),
    ("CCUCGUAGGGCCUAUGGUATT against Cyth4", "active"),
    ("GCAUACGUGUUCAAUGGUGTT against Ppef2", "inactive"),
    ("CCUCUUAUAUGCAUGUGGCTT against Olfr410", "active"),
]

Data origin: PubChem BioAssay AID1508600
